Recorded values, source patent US20240327432A1.

Test system: MCF-7 cells
assay_protocol: Dark toxicity measurement (CCK-8), MCF-7
Format: cell-based
measurement_setup: Homo sapiens, MCF7, 24 h in dark, read-out: DK IC50 (dark toxicity)
# label = yes if IC50 < 3 µM else no

[
  {
    "compound": "CCCNc1cc2c(c3sccc13)=Nc1ccc(N(CC)CC)cc1S=2Cl (centres unmarked)",
    "discrete_label": "yes"
  },
  {
    "compound": "CCN(CC)c1ccc2c(c1)S(Cl)=c1cc(N)c3ccsc3c1=N2 (centres unmarked)",
    "discrete_label": "no"
  },
  {
    "compound": "CCN(CC)c1ccc2c(c1)S(Cl)=c1cc(NC)c3ccsc3c1=N2 (centres unmarked)",
    "discrete_label": "yes"
  },
  {
    "compound": "CCCCCNc1cc2c(c3sccc13)=Nc1ccc(N(CC)CC)cc1S=2Cl (centres unmarked)",
    "discrete_label": "no"
  },
  {
    "compound": "CCCCCCCNc1cc2c(c3sccc13)=Nc1ccc(N(CC)CC)cc1S=2Cl (centres unmarked)",
    "discrete_label": "no"
  }
]

----------
assay_protocol: Fluorescence emission spectrum
Assay type: physicochemical
measurement_setup: excitation 650 nm, solvent methanol
measured_parameter: λem (maximum fluorescence emission wavelength) (nm)

[
  {
    "compound": "CCCNc1cc2c(c3sccc13)=Nc1ccc(N(CC)CC)cc1S=2Cl (centres unmarked)",
    "assay_result": 700
  },
  {
    "compound": "CCN(CC)c1ccc2c(c1)S(Cl)=c1cc(NC)c3ccsc3c1=N2 (centres unmarked)",
    "assay_result": 698
  },
  {
    "compound": "CCN(CC)c1ccc2c(c1)S(Cl)=c1cc(N)c3ccsc3c1=N2 (centres unmarked)",
    "assay_result": 692
  },
  {
    "compound": "CCCCCNc1cc2c(c3sccc13)=Nc1ccc(N(CC)CC)cc1S=2Cl (centres unmarked)",
    "assay_result": 701
  },
  {
    "compound": "CCCCCCCNc1cc2c(c3sccc13)=Nc1ccc(N(CC)CC)cc1S=2Cl (centres unmarked)",
    "assay_result": 700
  }
]

----------
Listing: ϕF (fluorescence quantum yield) of selected compounds
assay_protocol: Fluorescence emission spectrum
Type: physicochemical
measurement_setup: ϕF of MB as reference (0.04, methanol)
measured_parameter: ϕF (fluorescence quantum yield)

[
  {
    "compound": "CCN(CC)c1ccc2c(c1)S(Cl)=c1cc(N)c3ccsc3c1=N2 (centres unmarked) [Compound I-1]",
    "measured_parameter": "ϕF (fluorescence quantum yield)",
    "assay_result": 0.4
  },
  {
    "compound": "CCCCCCCNc1cc2c(c3sccc13)=Nc1ccc(N(CC)CC)cc1S=2Cl (centres unmarked) [Compound I-5]",
    "measured_parameter": "ϕF (fluorescence quantum yield)",
    "assay_result": 0.6
  },
  {
    "compound": "CCCNc1cc2c(c3sccc13)=Nc1ccc(N(CC)CC)cc1S=2Cl (centres unmarked) [Compound I-3]",
    "measured_parameter": "ϕF (fluorescence quantum yield)",
    "assay_result": 0.6
  },
  {
    "compound": "CCN(CC)c1ccc2c(c1)S(Cl)=c1cc(NC)c3ccsc3c1=N2 (centres unmarked) [Compound I-2]",
    "measured_parameter": "ϕF (fluorescence quantum yield)",
    "assay_result": 0.5
  },
  {
    "compound": "CCCCCNc1cc2c(c3sccc13)=Nc1ccc(N(CC)CC)cc1S=2Cl (centres unmarked) [Compound I-4]",
    "measured_parameter": "ϕF (fluorescence quantum yield)",
    "assay_result": 0.5
  }
]
